# targetDesc: human α7 nAChR (Homo sapiens)
# Construct: expressed in transfected cells; host or cells: GH4C1 cells (rat pituitary, ATCC CCL-82.2)
# Sequence (P36544 23-502): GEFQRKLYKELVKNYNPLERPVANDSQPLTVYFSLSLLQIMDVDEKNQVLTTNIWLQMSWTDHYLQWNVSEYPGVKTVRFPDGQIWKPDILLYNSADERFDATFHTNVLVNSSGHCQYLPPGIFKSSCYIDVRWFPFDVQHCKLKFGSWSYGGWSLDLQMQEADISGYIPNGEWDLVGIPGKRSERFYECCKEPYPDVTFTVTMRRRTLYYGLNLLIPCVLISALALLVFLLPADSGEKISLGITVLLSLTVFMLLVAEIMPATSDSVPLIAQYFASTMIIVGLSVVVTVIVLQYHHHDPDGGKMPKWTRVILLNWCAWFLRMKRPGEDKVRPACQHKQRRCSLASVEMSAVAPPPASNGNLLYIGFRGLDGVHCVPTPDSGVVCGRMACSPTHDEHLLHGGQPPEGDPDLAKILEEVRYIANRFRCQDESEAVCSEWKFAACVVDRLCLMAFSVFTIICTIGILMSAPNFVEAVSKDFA
# assayRemarks: Evaluation of PAM activity with human α7 nACh receptor stably expressing cells (aequorin luminescence, FDSS7000)
# Format: cell-based
# reportedConditions: test compound 10 μmol/L; ACh at EC20; ratio of RLU (Max-Min) of test-compound wells to control wells; human α7 nAChR expressing GH4C1 cells
measurementLabel: α7PAM (%) @ 10 μmol/L

Below, each entry is followed by its recorded α7PAM (%) @ 10 μmol/L result.
CO[C@H]1CC[C@H](NC(=O)N2CCC(n3ncc4c(C)c(C)ccc43)CC2)CC1 [Example 225] :: 480
CCc1ccc2c(cnn2C2CCN(C(=O)C3CCOCC3)CC2)c1 [Example 111] :: 410

P. CO[C@H]1CC[C@H](NC(=O)N2CCC(n3ncc4cc(-c5ccc(F)cc5)ccc43)CC2)CC1 [Example 155]
Q. CO[C@H]1CC[C@H](NC(=O)N2CCC(n3ncc4cc(C5CC5)ccc43)CC2)CC1 [Example 74]
Lookup: Hi, I'm comparing P with Q and wondering which one has the bigger number for α7PAM (%) @ 10 μmol/L. Any idea? Write down the label attached to your selection.
Found: Q
(Q: 1226%, P: 210%)
